Below, each entry is listed alongside its reported DC50.
Biological target: SMARCA2 (Homo sapiens)
Sequence (P51531 whole entry): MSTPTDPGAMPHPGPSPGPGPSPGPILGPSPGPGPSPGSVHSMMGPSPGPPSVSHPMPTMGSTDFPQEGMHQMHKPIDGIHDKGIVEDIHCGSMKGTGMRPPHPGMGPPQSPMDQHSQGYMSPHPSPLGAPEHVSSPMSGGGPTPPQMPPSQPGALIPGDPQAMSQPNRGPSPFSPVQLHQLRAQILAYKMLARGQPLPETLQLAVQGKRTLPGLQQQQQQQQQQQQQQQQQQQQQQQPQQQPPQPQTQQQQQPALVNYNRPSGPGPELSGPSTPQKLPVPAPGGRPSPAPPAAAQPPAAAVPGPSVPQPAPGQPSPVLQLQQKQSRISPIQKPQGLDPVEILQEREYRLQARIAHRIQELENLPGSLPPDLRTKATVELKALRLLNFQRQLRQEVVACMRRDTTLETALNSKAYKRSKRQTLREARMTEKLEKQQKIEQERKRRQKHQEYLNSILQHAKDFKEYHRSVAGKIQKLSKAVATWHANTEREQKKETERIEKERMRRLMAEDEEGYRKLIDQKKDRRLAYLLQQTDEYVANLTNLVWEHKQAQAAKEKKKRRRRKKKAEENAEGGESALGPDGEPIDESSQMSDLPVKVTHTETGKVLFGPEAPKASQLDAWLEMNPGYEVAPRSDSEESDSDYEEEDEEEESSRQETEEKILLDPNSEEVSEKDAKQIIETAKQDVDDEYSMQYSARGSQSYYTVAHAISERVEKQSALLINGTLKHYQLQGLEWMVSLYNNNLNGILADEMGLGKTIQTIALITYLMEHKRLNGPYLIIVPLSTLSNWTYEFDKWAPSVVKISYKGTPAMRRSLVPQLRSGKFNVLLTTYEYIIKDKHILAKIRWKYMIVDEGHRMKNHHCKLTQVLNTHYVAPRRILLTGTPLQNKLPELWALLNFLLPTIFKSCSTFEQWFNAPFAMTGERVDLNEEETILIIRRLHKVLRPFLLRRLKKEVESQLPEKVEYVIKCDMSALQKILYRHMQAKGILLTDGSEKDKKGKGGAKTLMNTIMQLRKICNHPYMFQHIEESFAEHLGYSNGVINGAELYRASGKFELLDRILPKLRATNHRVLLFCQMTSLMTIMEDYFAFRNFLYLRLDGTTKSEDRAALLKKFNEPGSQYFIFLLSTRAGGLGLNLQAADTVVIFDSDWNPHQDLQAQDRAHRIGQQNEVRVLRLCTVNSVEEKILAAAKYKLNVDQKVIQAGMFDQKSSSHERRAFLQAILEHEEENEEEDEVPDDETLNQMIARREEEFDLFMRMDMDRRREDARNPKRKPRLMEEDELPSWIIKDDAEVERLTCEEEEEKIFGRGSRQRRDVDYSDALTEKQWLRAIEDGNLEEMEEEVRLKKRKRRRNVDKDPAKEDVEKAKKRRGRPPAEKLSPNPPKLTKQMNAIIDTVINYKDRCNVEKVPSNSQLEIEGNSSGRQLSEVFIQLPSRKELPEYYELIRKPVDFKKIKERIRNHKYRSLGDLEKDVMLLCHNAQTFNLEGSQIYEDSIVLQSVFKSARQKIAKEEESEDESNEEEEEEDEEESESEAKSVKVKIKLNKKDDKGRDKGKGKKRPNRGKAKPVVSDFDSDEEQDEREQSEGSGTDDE
Experiment: HiBiT assay for protein degradation, Hela SMARCA2-HiBiT cells (A series)
Type: cell-based
Design: Hela cells were genetically modified via CRISPR/Cas9 to fuse HiBiT to the carboxy terminus of SMARCA2; host or cells: HeLa (CRISPR/Cas9 HiBiT knock-in)
Conditions: Hela SMARCA2-HiBiT cells, 24 hours treatment; read-out: SMARC A2 Hela HiBit DC50

Below are worked cases with known answers.
>>> result("Cc1ncsc1-c1ccc([C@H](CCCCCN2CCC(c3ccc4c(c3)C3(CCCCC3)c3nc(=O)c5c(Br)cccc5n3-4)CC2)NC(=O)[C@@H]2C[C@@H](O)CN2C(=O)[C@@H](NC(=O)C2(N(C)C)CC2)C(C)(C)C)cc1 [Compound A17]")
"< 100 nM"
>>> result("Cc1ncsc1-c1ccc([C@H](CN2CCOCC2)NC(=O)[C@@H]2C[C@@H](O)CN2C(=O)[C@H](C2CCOCC2)n2cc([C@H]3CC[C@H](CN4CCC(c5ccc6c(c5)-n5c(nc(=O)c7c(Cl)cccc75)C65CCCCC5)CC4)CC3)nn2)cc1 [Compound A100]")
"< 10 nM"
>>> result("Cc1ncsc1-c1ccc([C@H](CN2CCOCC2)NC(=O)[C@@H]2C[C@@H](O)CN2C(=O)[C@H](C2CCCCC2)n2cc([C@H]3CC[C@H](CN4CCC(c5ccc6c(c5)-n5c(nc(=O)c7c(Cl)cccc75)C65CCCCC5)CC4)CC3)nn2)cc1 [Compound A122]")
"< 10 nM"
>>> result("Cc1ncsc1-c1ccc([C@H](CNC(=O)[C@H]2CC[C@H](CN3CCC(c4ccc5c(c4)C4(CCCCC4)c4nc(=O)c6c(Br)cccc6n4-5)CC3)CC2)NC(=O)[C@@H]2C[C@@H](O)CN2C(=O)[C@@H](n2cc(C3CC3)nn2)C(C)(C)C)cc1 [Compound A117]")
"> 1000 nM"

[in] Respond only with DC50 recorded for Cc1ncsc1-c1ccc([C@H](C)NC(=O)[C@@H]2C[C@@H](O)CN2C(=O)[C@@H](n2cc([C@H]3CC[C@H](CN4CCC(c5ccc6c(n5)-n5c(nc(=O)c7c(Br)cccc75)C65CCCCC5)CC4)CC3)nn2)C(C)(C)C)cc1 [Compound A50]
[out] < 100 nM

[in] Please report the measured DC50 for Cc1ncsc1-c1ccc([C@H](CN2CCC(C(F)F)CC2)NC(=O)[C@@H]2C[C@@H](O)CN2C(=O)[C@@H](n2cc([C@H]3CC[C@H](CN4CCC(c5ccc6c(c5)-n5c(nc(=O)c7c(Cl)cccc75)C65CCCCC5)CC4)CC3)nn2)C(C)(C)C)cc1 [Compound A84]
[out] 10 to 100 nM

[in] Return the recorded DC50 value; entry: COC(=O)COC[C@H](NC(=O)[C@@H]1C[C@@H](O)CN1C(=O)[C@@H](n1cc([C@H]2CC[C@H](CN3CCC(c4ccc5c(c4)-n4c(nc(=O)c6c(Cl)cccc64)C54CCCCC4)CC3)CC2)nn1)C(C)(C)C)c1ccc(-c2scnc2C)cc1 [Compound A152]
[out] < 10 nM

[in] Answer with reported DC50 of Cc1ncsc1-c1ccc([C@H](C)NC(=O)[C@@H]2C[C@@H](O)CN2C(=O)[C@@H](n2cc(CCCCN3CCC(c4ccc5c(c4)C4(CCCCC4)c4nc(=O)c6c(Br)cccc6n4-5)CC3)nn2)C(C)(C)C)cc1 [Compound A56]
[out] < 100 nM

[in] Fill in reported DC50 for this entry: Cc1ncsc1-c1ccc([C@H](CC(=O)N2CCC3(CCC(N4CCC(c5ccc6c(c5)-n5c(nc(=O)c7c(Br)cccc75)C65CCCCC5)CC4)CC3)CC2)NC(=O)[C@@H]2C[C@@H](O)CN2C(=O)[C@@H](n2cc(C3CC3)nn2)C(C)(C)C)cc1 [Compound A144]
[out] < 10 nM

[in] State its DC50 for this molecule: Cc1ncsc1-c1ccc([C@H](CN2CCOCC2)NC(=O)[C@@H]2C[C@@H](O)CN2C(=O)[C@@H](n2cc([C@H]3CC[C@H](CN4CCC(c5ccc6c(c5)-n5c(nc(=O)c7c(Cl)cccc75)C6(C)C)CC4)CC3)nn2)C(C)(C)C)cc1 [Compound A90]
[out] < 10 nM

[in] Quickly give me recorded DC50 for Cc1ncsc1-c1ccc([C@H](C)NC(=O)[C@@H]2C[C@@H](O)CN2C(=O)[C@H](C2CCN(C(=O)CCCCN3CCC(c4ccc5c(c4)-n4c(nc(=O)c6c(Cl)cccc64)C54CCCCC4)CC3)CC2)n2cc(C3CC3)nn2)cc1 [Compound A107]
[out] 100 to 1000 nM

[in] Return DC50 (reported value) for this molecule: Cc1ncsc1-c1ccc([C@@H](NC(=O)[C@@H]2C[C@@H](O)CN2C(=O)[C@@H](n2cc(C3CC3)nn2)C(C)(C)C)C(=O)N2CCC3(CCC(CN4CCC(c5ccc6c(c5)-n5c(nc(=O)c7c(Br)cccc75)C65CCCCC5)CC4)CC3)CC2)cc1 [Compound A137]
[out] < 10 nM

[in] Give DC50 for the following molecule: Cc1ncsc1-c1ccc([C@H](CN2CCN(C)CC2)NC(=O)[C@@H]2C[C@@H](O)CN2C(=O)[C@@H](n2cc([C@H]3CC[C@H](CN4CCC(c5ccc6c(c5)-n5c(nc(=O)c7c(Cl)cccc75)C65CCCCC5)CC4)CC3)nn2)C(C)(C)C)cc1 [Compound A85]
[out] < 10 nM

[in] Provide one value: measured DC50 of Cc1ncoc1-c1ccc([C@H](CN2CCOCC2)NC(=O)[C@@H]2C[C@@H](O)CN2C(=O)[C@@H](n2cc([C@H]3CC[C@H](CN4CCC(c5ccc6c(c5)-n5c(nc(=O)c7c(Cl)cccc75)C65CCCCC5)CC4)CC3)nn2)C(C)(C)C)cc1 [Compound A165]
[out] < 10 nM

[in] Identify DC50 associated with the molecule CC(C)(C)[C@@H](C(=O)N1C[C@H](O)C[C@H]1C(=O)N[C@@H](CN1CCOCC1)c1ccc(-c2ccccn2)cc1)n1cc([C@H]2CC[C@H](CN3CCC(c4ccc5c(c4)-n4c(nc(=O)c6c(Cl)cccc64)C54CCCCC4)CC3)CC2)nn1 [Compound A173]
[out] < 10 nM
